Measured Target: NAMPT (human, recombinant, C-terminally His-tagged) (Homo sapiens, UniProt P43490)
Sequence (P43490 whole entry): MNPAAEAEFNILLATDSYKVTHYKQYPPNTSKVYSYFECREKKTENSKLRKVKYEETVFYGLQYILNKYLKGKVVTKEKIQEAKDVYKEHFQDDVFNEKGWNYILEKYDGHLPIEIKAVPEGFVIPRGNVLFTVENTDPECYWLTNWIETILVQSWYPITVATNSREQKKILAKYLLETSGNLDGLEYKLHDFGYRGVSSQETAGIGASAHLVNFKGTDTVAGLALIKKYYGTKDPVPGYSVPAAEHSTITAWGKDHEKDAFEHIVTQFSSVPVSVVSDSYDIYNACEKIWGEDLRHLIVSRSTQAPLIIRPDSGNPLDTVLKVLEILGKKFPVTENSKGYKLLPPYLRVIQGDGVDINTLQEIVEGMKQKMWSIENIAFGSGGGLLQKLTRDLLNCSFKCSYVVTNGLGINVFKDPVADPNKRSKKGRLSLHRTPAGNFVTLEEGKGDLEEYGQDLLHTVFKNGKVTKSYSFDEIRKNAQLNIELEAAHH
Protocol Summary: Time-Resolved Fluorescence Resonance Energy Transfer (TR-FRET) Binding Assay of NAMPT
Experimental Parameters: without substrates; 6.8 nM NAMPT, 200 nM probe, 3 hours equilibration
Doc: threshold 300 nM (exclusive). Items with IC50 beneath it return TRUE; others return FALSE.

> print(dat)
                                   compound                           measured.target    cat
1  COCCN1CCN(c2ncc(C(=O)NCc3ccn4ccnc4c3)s2)CC1  NAMPT (human, recombinant, C-terminally His-tagged) (Homo sapiens, UniProt P43490)  FALSE
2  CC(C)CCNC(=O)c1ccc(C(=O)NCc2ccn3ccnc3c2)cc1  NAMPT (human, recombinant, C-terminally His-tagged) (Homo sapiens, UniProt P43490)  FALSE
3  COc1ccccc1C(=O)N1CCC(c2ccc(C(=O)NCc3ccn4ccnc4c3)s2)C1 (centres unmarked)  NAMPT (human, recombinant, C-terminally His-tagged) (Homo sapiens, UniProt P43490)   TRUE
4  O=C(NCc1ccn2ccnc2c1)c1ccc(C2CN(C(=O)C3CCCCC3)C2)cc1  NAMPT (human, recombinant, C-terminally His-tagged) (Homo sapiens, UniProt P43490)   TRUE
5  CC(C)(C)C(=O)N1CC(c2ccc(C(=O)NCc3ccn4ccnc4c3)cc2)C1  NAMPT (human, recombinant, C-terminally His-tagged) (Homo sapiens, UniProt P43490)  FALSE
6  O=C(Nc1ccc(NC(=O)C2CCS(=O)(=O)CC2)cc1)Nc1ccc2nccn2c1  NAMPT (human, recombinant, C-terminally His-tagged) (Homo sapiens, UniProt P43490)  FALSE
7  O=C(NCc1ccn2ccnc2c1)Nc1ccc(OC2CCN(C(=O)c3ccc(F)c(F)c3)CC2)cc1  NAMPT (human, recombinant, C-terminally His-tagged) (Homo sapiens, UniProt P43490)  FALSE
8  N#Cc1ccc(C(=O)N2CCC(c3ccc(C(=O)NCc4ccn5ccnc5c4)s3)C2)cc1 (centres unmarked)  NAMPT (human, recombinant, C-terminally His-tagged) (Homo sapiens, UniProt P43490)   TRUE
